Overview of recorded log10(IC50) for various compounds
- Test system: PvGGPPS (geranylgeranyl pyrophosphate synthase from Plasmodium)
- Protocol Text: In vitro PvGGPPS enzymatic activity assay
- Type: biochemical
- Measurement Conditions: GPP and IPP substrates
Value Kind: log10(IC50) (log10 of the value in µM)

>  <Item Smiles>
O=P(O)(O)C(O)(Cn1cnc2cc(OCl)ccc21)P(=O)(O)O

>  <Value Kind>
log10(IC50)

>  <Observed>
-0.09

$$$$
>  <Item Smiles>
CCOc1ccc2c(c1)ncn2CC(O)(P(=O)(O)O)P(=O)(O)O

>  <Value Kind>
log10(IC50)

>  <Observed>
-0.25

$$$$
>  <Item Smiles>
CCCCCCCCOc1ccc2c(c1)ncn2CC(O)(P(=O)(O)O)P(=O)(O)O

>  <Value Kind>
log10(IC50)

>  <Observed>
0.32

$$$$
>  <Item Smiles>
CCCCCCCCCCCCOc1ccc2c(c1)ncn2CC(O)(P(=O)(O)O)P(=O)(O)O

>  <Value Kind>
log10(IC50)

>  <Observed>
0.71

$$$$
>  <Item Smiles>
COc1ccc2c(c1)ncn2CC(O)(P(=O)(O)O)P(=O)(O)O

>  <Value Kind>
log10(IC50)

>  <Observed>
-0.21

$$$$
>  <Item Smiles>
CCCCCCCOc1ccc2c(c1)ncn2CC(O)(P(=O)(O)O)P(=O)(O)O

>  <Value Kind>
log10(IC50)

>  <Observed>
-0.02

$$$$
>  <Item Smiles>
CCCOc1ccc2c(c1)ncn2CC(O)(P(=O)(O)O)P(=O)(O)O

>  <Value Kind>
log10(IC50)

>  <Observed>
-0.33

$$$$
>  <Item Smiles>
CCCCCCOc1ccc2c(c1)ncn2CC(O)(P(=O)(O)O)P(=O)(O)O

>  <Value Kind>
log10(IC50)

>  <Observed>
-0.43

$$$$
>  <Item Smiles>
CCCCOc1ccc2c(c1)ncn2CC(O)(P(=O)(O)O)P(=O)(O)O

>  <Value Kind>
log10(IC50)

>  <Observed>
-0.55

$$$$
>  <Item Smiles>
CCCCCCCCCOc1ccc2c(c1)ncn2CC(O)(P(=O)(O)O)P(=O)(O)O

>  <Value Kind>
log10(IC50)

>  <Observed>
0.04

$$$$
>  <Item Smiles>
CCCCCOc1ccc2c(c1)ncn2CC(O)(P(=O)(O)O)P(=O)(O)O

>  <Value Kind>
log10(IC50)

>  <Observed>
-0.34

$$$$

###

- Test System: HsGGPPS (humanized geranylgeranyl pyrophosphate synthase) (Homo sapiens (Human), UniProt O95749)
- Sequence (O95749 whole entry, looked up): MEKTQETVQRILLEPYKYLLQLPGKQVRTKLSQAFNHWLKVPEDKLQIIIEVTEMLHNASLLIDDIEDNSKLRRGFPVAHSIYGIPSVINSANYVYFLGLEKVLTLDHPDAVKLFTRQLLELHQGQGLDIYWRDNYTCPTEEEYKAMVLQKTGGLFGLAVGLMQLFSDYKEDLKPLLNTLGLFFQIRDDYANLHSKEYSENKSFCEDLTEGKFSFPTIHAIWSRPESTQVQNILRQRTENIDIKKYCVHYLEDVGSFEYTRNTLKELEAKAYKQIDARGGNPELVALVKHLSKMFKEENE

>  <Compound>
CCCCCCOc1cccc(CC(P(=O)(O)O)P(=O)(O)O)c1 [TH-Z144]

>  <IC50 / nM>
2760

$$$$

###

Listing of recorded IC50 by entry.
- Test System: humanized farnesyl pyrophosphate synthase (HsFPPS) (Homo sapiens (Human))
- Protocol Text: In vitro HsFPPS enzyme activity assay
- Type: biochemical
- Measurement Conditions: Example 15 table; read-out: HsFPPS (IC50/μM)

>  <Item Smiles>
CCCCCCCCCCCCOc1ccc2c(c1)ncn2CC(O)(P(=O)(O)O)P(=O)(O)O

>  <IC50>
> 5 µM

$$$$
>  <Item Smiles>
CCCCCCCOc1ccc2c(c1)ncn2CC(O)(P(=O)(O)O)P(=O)(O)O

>  <IC50>
0.14 µM

$$$$
>  <Item Smiles>
CCCCCCCCCOc1ccc2c(c1)ncn2CC(O)(P(=O)(O)O)P(=O)(O)O

>  <IC50>
4.9 µM

$$$$
>  <Item Smiles>
CCCOc1ccc2c(c1)ncn2CC(O)(P(=O)(O)O)P(=O)(O)O

>  <IC50>
0.27 µM

$$$$
>  <Item Smiles>
CCCCCCCCOc1ccc2c(c1)ncn2CC(O)(P(=O)(O)O)P(=O)(O)O

>  <IC50>
0.48 µM

$$$$
>  <Item Smiles>
COc1ccc2c(c1)ncn2CC(O)(P(=O)(O)O)P(=O)(O)O

>  <IC50>
0.1 to 0.3 µM

$$$$
>  <Item Smiles>
CCCCOc1ccc2c(c1)ncn2CC(O)(P(=O)(O)O)P(=O)(O)O

>  <IC50>
0.14 µM

$$$$
>  <Item Smiles>
CCCCCOc1ccc2c(c1)ncn2CC(O)(P(=O)(O)O)P(=O)(O)O

>  <IC50>
0.12 µM

$$$$
>  <Item Smiles>
CCCCCCOc1ccc2c(c1)ncn2CC(O)(P(=O)(O)O)P(=O)(O)O

>  <IC50>
0.11 µM

$$$$
>  <Item Smiles>
CCOc1ccc2c(c1)ncn2CC(O)(P(=O)(O)O)P(=O)(O)O

>  <IC50>
0.068 µM

$$$$
>  <Item Smiles>
O=P(O)(O)C(O)(Cn1cnc2cc(OCl)ccc21)P(=O)(O)O

>  <IC50>
0.16 µM

$$$$

###

- Test System: humanized farnesyl pyrophosphate synthase (HsFPPS) (Homo sapiens (Human), UniProt P14324)
- Sequence (P14324 whole entry, looked up): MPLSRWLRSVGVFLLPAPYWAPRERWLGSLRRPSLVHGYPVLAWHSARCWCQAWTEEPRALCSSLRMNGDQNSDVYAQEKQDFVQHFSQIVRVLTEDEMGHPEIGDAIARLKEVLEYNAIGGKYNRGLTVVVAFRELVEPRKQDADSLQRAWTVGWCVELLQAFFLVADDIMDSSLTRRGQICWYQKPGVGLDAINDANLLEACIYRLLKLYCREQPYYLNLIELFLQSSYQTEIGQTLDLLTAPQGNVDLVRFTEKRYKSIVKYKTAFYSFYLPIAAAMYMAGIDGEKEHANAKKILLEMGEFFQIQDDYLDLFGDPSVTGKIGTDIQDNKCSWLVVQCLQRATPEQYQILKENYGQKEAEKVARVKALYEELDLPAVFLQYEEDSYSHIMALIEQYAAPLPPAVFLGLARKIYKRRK
- Protocol Text: In vitro HsFPPS enzyme activity assay
- Assay type: biochemical
- Measurement Conditions: TH-Z80 series; DMAPP and IPP substrates, pH 7.4; read-out: IC50 for inhibition of FPPS
- Procedure: The measurement method is briefly described as follows: the expression of HsFPPS with 6 consecutive His at the N-terminus was induced in vitro, collected, and purified by Ni column. An in vitro HsFPPS enzyme activity assay was performed in a 96-well plate with 200 μl of solution per well. […] Using DMAPP and IPP as reaction substrates, the change of the UV value at a wavelength of 360 nm was monitored in real time in a phosphate lyase system. […]
pIC50: −log10 of the molar value.
Recorded pIC50 for the following compounds

>  <Item Smiles>
CCCCCCCCCOc1ccc2c(c1)ncn2CC(O)(P(=O)(O)O)P(=O)(O)O

>  <Test System>
humanized farnesyl pyrophosphate synthase (HsFPPS) (Homo sapiens (Human), UniProt P14324)

>  <Modifier>
=

>  <pIC50>
5.31

$$$$
>  <Item Smiles>
CCCCCCCOc1ccc2c(c1)ncn2CC(O)(P(=O)(O)O)P(=O)(O)O

>  <Test System>
humanized farnesyl pyrophosphate synthase (HsFPPS) (Homo sapiens (Human), UniProt P14324)

>  <Modifier>
=

>  <pIC50>
6.85

$$$$
>  <Item Smiles>
CCOc1ccc2c(c1)ncn2CC(O)(P(=O)(O)O)P(=O)(O)O

>  <Test System>
humanized farnesyl pyrophosphate synthase (HsFPPS) (Homo sapiens (Human), UniProt P14324)

>  <Modifier>
=

>  <pIC50>
7.17

$$$$
>  <Item Smiles>
CCCOc1ccc2c(c1)ncn2CC(O)(P(=O)(O)O)P(=O)(O)O

>  <Test System>
humanized farnesyl pyrophosphate synthase (HsFPPS) (Homo sapiens (Human), UniProt P14324)

>  <Modifier>
=

>  <pIC50>
6.57

$$$$
>  <Item Smiles>
CCCCOc1ccc2c(c1)ncn2CC(O)(P(=O)(O)O)P(=O)(O)O

>  <Test System>
humanized farnesyl pyrophosphate synthase (HsFPPS) (Homo sapiens (Human), UniProt P14324)

>  <Modifier>
=

>  <pIC50>
6.85

$$$$
>  <Item Smiles>
CCCCCCCCOc1ccc2c(c1)ncn2CC(O)(P(=O)(O)O)P(=O)(O)O

>  <Test System>
humanized farnesyl pyrophosphate synthase (HsFPPS) (Homo sapiens (Human), UniProt P14324)

>  <Modifier>
=

>  <pIC50>
6.32

$$$$
>  <Item Smiles>
CCCCCOc1ccc2c(c1)ncn2CC(O)(P(=O)(O)O)P(=O)(O)O

>  <Test System>
humanized farnesyl pyrophosphate synthase (HsFPPS) (Homo sapiens (Human), UniProt P14324)

>  <Modifier>
=

>  <pIC50>
6.92

$$$$
>  <Item Smiles>
CCCCCCOc1ccc2c(c1)ncn2CC(O)(P(=O)(O)O)P(=O)(O)O

>  <Test System>
humanized farnesyl pyrophosphate synthase (HsFPPS) (Homo sapiens (Human), UniProt P14324)

>  <Modifier>
=

>  <pIC50>
6.96

$$$$
>  <Item Smiles>
CCCCCCCCCCCCOc1ccc2c(c1)ncn2CC(O)(P(=O)(O)O)P(=O)(O)O

>  <Test System>
humanized farnesyl pyrophosphate synthase (HsFPPS) (Homo sapiens (Human), UniProt P14324)

>  <Modifier>
<

>  <pIC50>
5.30

$$$$

###

- Test System: humanized farnesyl pyrophosphate synthase (HsFPPS) (Homo sapiens (Human))
- Protocol Text: In vitro HsFPPS enzyme activity assay
- Assay type: biochemical
- Measurement Conditions: o-aminopyridine bisphosphonic acid compounds; read-out: IC50 (inhibition of FPPS)
pIC50: −log10 of the molar value.

>  <Item Smiles>
CCCCCCOc1ccnc(NC(P(=O)(O)O)P(=O)(O)O)c1

>  <pIC50>
7.00

$$$$
>  <Item Smiles>
O=P(O)(O)C(Nc1cc(OCc2ccccc2)ccn1)P(=O)(O)O

>  <pIC50>
6.97

$$$$
>  <Item Smiles>
O=P(O)(O)C(Nc1cc(-n2cc3c(n2)CCCC3)ccn1)P(=O)(O)O

>  <pIC50>
6.95

$$$$
>  <Item Smiles>
NC(=O)c1cc(COc2ccnc(NC(P(=O)(O)O)P(=O)(O)O)c2)ccn1

>  <pIC50>
6.19

$$$$
